Entries and their measured GI50 follow.
Test system: LOX IMVI
Method: NCI tumour cell line growth inhibition, 48 h
Active and inactive are the calls of the source. Cut-off read from the data, not from the text of the source: active = GI50 up to about 1.1 µM and inactive = higher.
Observation Type: GI50

CN1CCc2cc3c4cc2C1Cc1ccc(cc1)Oc1cc(ccc1O)CC1c2c(cc(O)c(c2O4)O3)CCN1C (stereo unspecified)
1.66 µM (inactive)
Cc1ccccc1NC(=O)C(=O)CC(=O)c1sc(-n2nc(-c3ccccc3)cc2-c2ccccc2)nc1C
> 100 µM (inactive)
O=C(Oc1cccc2cccnc12)c1cc2cc(CCl)ccc2oc1=O
25.3 µM (inactive)
C/C(=N\c1ccc(Cl)cc1)c1ccncc1
> 100 µM (inactive)
COC(=O)c1nn(C(=N)c2ccc(Cl)cc2)c2c1CCC2
> 100 µM (inactive)
O=C(CNc1ccc([N+](=O)[O-])cc1)Nn1c(-c2ccccc2)nc2ccccc2c1=O
0.841 µM (active)

* * *

Tested on: HCT-116
Method: NCI tumour cell line growth inhibition, 48 h
Calls of active or inactive are those of the source. Cut-off read from the data, not from the text of the source: active = GI50 up to about 1.1 µM and inactive = higher.
Possible outcomes: active, inactive

Brc1ccc(C2=NCSC(c3ccc(Br)cc3)=N2)cc1
inactive
Nc1ncnc2c1ccn2CC#CCO
inactive
COC1/C=C/C(C)C(OC)CC(O)/C=C/C(C)C(C(C)C(OC)C(C)CCC(=O)C(C)C(C/C=C/N(C)C=O)OC)OC(=O)/C=C/C=C(\C)CC(OC)CC2=CC(=O)O[C@@H](C(C)C(OC)C1)[C@H]2O (stereo partly drawn)
active
CC1(C)OC(=O)C(c2cccs2)C(=O)O1
inactive
Cc1c2cc[n+](C)cc2c(C)c2c1oc1ccccc12
inactive
COC(=O)/C=C\C(C#N)(C#N)/N=C/c1ccc(OC)cc1
inactive
COc1ccc2c(c1O)[C@@]13C=C(O)C(=O)C=C1[C@@H](C2)N(C)CC3
inactive
CC1(C)CCCC2(C)C3C(O)CC2(C)C(O)C31 (stereo not drawn)
inactive

* * *

Tested on: NCI-H23
Method: NCI tumour cell line growth inhibition, 48 h
Counter-ions that a name gives are not always drawn. Active and inactive are the calls of the source. Rule as the data show it: active = GI50 up to about 1.1 µM and inactive = higher.
Observation Type: GI50

C=C1CN2CCc3c([nH]c4ccccc34)C2CC1CC(=O)N(C)C (stereo not given)
> 309 µM (inactive)
NC(=O)CC(N)C(N)=O (stereo not given)
> 100 µM (inactive)
OCCN1CN(c2nc(N3CN(CCO)C3)nc(N3CN(CCO)C3)n2)C1
22.2 µM (inactive)
NCC1(N2CCOCC2)C2CCCC21CNc1ccccc1 (stereo not given)
> 100 µM (inactive)
C[Si](C)(OCCS(=O)(=O)O)C1(Cc2cccc3ccccc23)S(=O)(=O)OCCOS1(=O)=O
27.8 µM (inactive)
COc1ccccc1N1CCN(CCCNC(=O)c2cc(Cl)c(N)c(Cl)c2)CC1
49.7 µM (inactive)
O=C1COc2ccc([N+](=O)[O-])cc2C(=O)C1
> 10 µM (inactive)
COc1cccc2cc(C(=O)O)c(=O)oc12
> 100 µM (inactive)
CC1=Nc2c(ccc3c2C(=O)c2ccccc2C3=O)NC(c2ccncc2)C1 (stereo not given)
> 10 µM (inactive)
NNC(=O)C1CCC(=O)N1S(=O)(=O)c1ccccc1 (stereo not given)
> 100 µM (inactive)
CCCc1c(OC)c(=O)c2c(O)cc(OC)c3c4c(OC)cc(O)c5c(=O)c(OC)c(CCC)c(c1c23)c54
7.94 µM (inactive)
COc1cc(CCCOC(=O)/C=C/c2ccc(O)c(O)c2)cc(O)c1O
56.4 µM (inactive)
CN(C(=S)Cc1ccc(Cl)c(Cl)c1)C1CCCC[C@@H]1N1CCCC1 (stereo not given in full)
44.2 µM (inactive)
O/N=C1/CCCc2nonc21
> 100 µM (inactive)
O=C1N[C@H](C(=O)O)[C@@H](c2ccc(OCc3ccccc3)cc2)O1
40.4 µM (inactive)
CN(C)c1ccc(C(=O)NCCCCCCC(=O)NO)cc1
0.562 µM (active)
CN1C[C@H](C(=O)N[C@]2(C)O[C@@]3(O)[C@@H]4CCCN4C(=O)[C@H](Cc4ccccc4)N3C2=O)C=C2c3cccc4[nH]cc(c34)C[C@H]21 [ERGOTAMINE TARTRATE]
21.5 µM (inactive)
Cc1ccc2c(O)cc(-c3csc4ccccc34)nc2n1
0.0274 µM (active)
O=S(=O)(O)c1ccc(-c2c3nc(c(-c4ccc(S(=O)(=O)O)cc4)c4ccc([nH]4)c(-c4ccc(S(=O)(=O)O)cc4)c4nc(c(-c5ccc(S(=O)(=O)O)cc5)c5ccc2[nH]5)C=C4)C=C3)cc1
64.4 µM (inactive)
CC1(C)CO[P@@](=S)(c2ccccn2)O[C@@H]1c1ccccc1
89.3 µM (inactive)
